B1: ZNF193 (parent)
chain: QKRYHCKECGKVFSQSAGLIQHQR

variants of: B1; assay: protein stability index of a GFP-peptide fusion (GPS, HEK-293T) (PSI 1-6); higher = more stable; settings: c terminus: a fixed tail appended;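 also: lentivirally expressed fusions sorted by FACS into six bins by GFP to DsRed ratio, PSI derived from sequencing read proportions per bin multiplied by bin number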
Metric: protein stability index
Form field (numeric): enter value without unit.

Ask | Quick one: protein stability index for Y4T ?
Reply | 1.97

Ask | Could you tell me which protein stability index is on file for K7N ?
Reply | 3.23

Ask | Need protein stability index of K2I , thanks.
Reply | 2.81

Ask | What does the data say about its protein stability index? Entry: L19P
Reply | 2.54

Ask | Consider the variant shown here: H5S What is its recorded protein stability index?
Reply | 2.94

Ask | Which protein stability index value belongs to H5T ?
Reply | 3.23

Ask | Item Q15I has what recorded protein stability index?
Reply | 1.92

Ask | // returns reported protein stability index for input Q15A
Reply | 2.83

Ask | Can you share its protein stability index? I mean this variant: R3D
Reply | 2.35

Ask | Record request: protein stability index value, item S16R
Reply | 3.97

Ask | Using the record for Q15V , report its protein stability index.
Reply | 2.16

Ask | // query protein stability index value for entry F13D
Reply | 1.72

Ask | What does the record list as protein stability index for S16A ?
Reply | 3.71

Ask | For I20N , what is its reported protein stability index?
Reply | 2.5

Ask | Name the reported protein stability index value associated with the variant K7T
Reply | 2.74

Ask | So what's the measured protein stability index for this one? Q1G
Reply | 2.81

Ask | Recorded protein stability index for F13T , please?
Reply | 1.91

Ask | Field request: protein stability index | item: K2Q
Reply | 3.04

Ask | // returns reported protein stability index for input Y4K
Reply | 2.65

Ask | Give the measured protein stability index of Q23V .
Reply | 2.37

Ask | Look at this variant and give its reported protein stability index. A17P
Reply | 2.02

Ask | Returns the measured protein stability index for the input variant. Input: G10V
Reply | 1.46
